# testTarget: recombinant integrin α4β7 (Homo sapiens, UniProt P13612+P26010, DEL724-798)
# Construct: purchased R&D Systems 5397-A3-050
# protocolDescription: Integrin α4β7—MAdCAM-1 ELISA competition assay
# Type: binding
# conditionNotes: read-out: ELISA a4b7 Assay IC50
measurementLabel: IC50 (nM)
Please reply with the bare figure in nM and do not write the unit itself.

Input line: # get_value(readout= IC50, system= recombinant integrin α4β7 (Homo sapiens, UniProt P13612+P26010, DEL724-798)) for CCCC[C@H]1NC(=O)[C@H](Cc2ccc(O)cc2)NC(=O)[C@@H]2CCCN2[C@H](C(=O)NC(C)(C)C)[C@H](C)NC(=O)[C@H]([C@@H](C)O)NC(=O)[C@H](CC(=O)O)NC(=O)[C@H](CC(C)C)NC1=O [Compound 155]
Output line: 54

Input line: IC50 of CC(C)C[C@@H]1NC(=O)C[C@H](CCCCN)NC(=O)[C@H](Cc2ccccc2-c2cc(C(F)(F)F)ccc2C(F)(F)F)NC(=O)[C@@H]2CCCN2[C@H](C(=O)NC(C)(C)C)[C@H](C)NC(=O)[C@H]([C@@H](C)O)NC(=O)[C@H](CC(=O)O)NC1=O [Compound 286] on recombinant integrin α4β7 (Homo sapiens, UniProt P13612+P26010, DEL724-798)?
Output line: 64

Input line: Missing value: IC50, recombinant integrin α4β7 (Homo sapiens, UniProt P13612+P26010, DEL724-798), entry C=CCOc1ccc(C[C@@H]2NC(=O)[C@@H]3CCCN3[C@H](C(=O)NC(C)(C)C)[C@H](C)NC(=O)[C@H]([C@@H](C)O)NC(=O)[C@H](CC(=O)O)NC(=O)[C@H](CC(C)C)NC(=O)[C@@H](CO)NC2=O)cc1 [Compound 167] . Fill in?
Output line: 147

Input line: Form field: IC50 recorded for CC(C)C[C@@H]1NC(=O)[C@H]2CCCCN2C(=O)[C@H](Cc2ccccc2I)NC(=O)[C@@H]2CCCN2[C@H](C(=O)NC(C)(C)C)[C@H](C)NC(=O)[C@H]([C@@H](C)O)NC(=O)[C@H](CC(=O)O)NC1=O [Compound 133] with recombinant integrin α4β7 (Homo sapiens, UniProt P13612+P26010, DEL724-798) (enter value)
Output line: 15

* * *

# testTarget: recombinant integrin α4β7 (Homo sapiens, UniProt P13612+P26010, DEL724-798)
# Construct: purchased R&D Systems 5397-A3-050
# Sequence (P13612 34-970 limits assumed): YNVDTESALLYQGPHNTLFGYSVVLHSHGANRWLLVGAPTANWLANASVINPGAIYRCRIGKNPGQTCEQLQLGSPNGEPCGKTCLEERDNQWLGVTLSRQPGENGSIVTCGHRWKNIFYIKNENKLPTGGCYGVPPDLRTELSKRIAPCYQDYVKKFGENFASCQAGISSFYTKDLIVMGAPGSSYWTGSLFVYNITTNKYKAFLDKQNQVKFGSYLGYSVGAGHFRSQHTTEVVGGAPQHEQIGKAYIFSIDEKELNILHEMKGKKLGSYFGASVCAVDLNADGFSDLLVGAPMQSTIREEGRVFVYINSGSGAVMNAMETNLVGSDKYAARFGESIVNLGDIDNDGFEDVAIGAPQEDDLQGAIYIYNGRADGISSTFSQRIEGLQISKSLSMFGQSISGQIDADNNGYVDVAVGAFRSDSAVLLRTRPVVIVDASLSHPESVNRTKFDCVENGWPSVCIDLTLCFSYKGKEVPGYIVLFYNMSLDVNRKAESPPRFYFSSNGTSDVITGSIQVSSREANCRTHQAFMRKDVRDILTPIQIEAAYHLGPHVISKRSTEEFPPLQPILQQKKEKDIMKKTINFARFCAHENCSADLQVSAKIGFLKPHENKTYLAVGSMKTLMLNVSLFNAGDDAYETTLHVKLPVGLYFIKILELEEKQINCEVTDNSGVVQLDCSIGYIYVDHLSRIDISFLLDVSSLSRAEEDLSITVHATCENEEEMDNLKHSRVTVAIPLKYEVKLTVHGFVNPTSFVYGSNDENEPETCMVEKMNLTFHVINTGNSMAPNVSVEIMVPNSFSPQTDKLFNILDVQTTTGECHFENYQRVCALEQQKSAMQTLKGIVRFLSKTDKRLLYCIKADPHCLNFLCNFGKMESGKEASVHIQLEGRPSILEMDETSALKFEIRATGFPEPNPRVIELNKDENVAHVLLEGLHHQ
# Sequence (P26010 20-723 limits assumed): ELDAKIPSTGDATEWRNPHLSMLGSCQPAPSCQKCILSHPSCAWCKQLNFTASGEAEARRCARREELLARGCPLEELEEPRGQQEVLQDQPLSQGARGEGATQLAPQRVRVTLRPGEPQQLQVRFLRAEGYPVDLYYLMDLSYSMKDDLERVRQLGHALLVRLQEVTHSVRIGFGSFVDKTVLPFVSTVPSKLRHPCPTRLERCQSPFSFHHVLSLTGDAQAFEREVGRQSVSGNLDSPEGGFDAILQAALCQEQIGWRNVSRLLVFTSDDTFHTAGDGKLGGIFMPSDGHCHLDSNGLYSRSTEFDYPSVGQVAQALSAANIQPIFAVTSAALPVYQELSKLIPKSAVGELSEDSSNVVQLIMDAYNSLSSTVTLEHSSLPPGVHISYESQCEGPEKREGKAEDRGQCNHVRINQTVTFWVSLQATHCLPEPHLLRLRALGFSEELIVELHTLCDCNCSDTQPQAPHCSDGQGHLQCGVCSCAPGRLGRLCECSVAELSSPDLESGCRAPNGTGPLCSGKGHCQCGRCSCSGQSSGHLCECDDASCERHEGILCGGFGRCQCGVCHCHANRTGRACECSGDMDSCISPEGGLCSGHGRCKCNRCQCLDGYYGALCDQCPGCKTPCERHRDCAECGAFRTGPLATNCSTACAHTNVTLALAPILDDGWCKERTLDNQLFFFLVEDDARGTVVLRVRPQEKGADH
# protocolDescription: Integrin α4β7—MAdCAM-1 ELISA competition assay
# Type: binding
# conditionNotes: ratio of a4b1 to a4b7 ELISA IC50
measurementLabel: ELISA Assay Ratio b1/b7
Number only, no unit.

Input line: Please give the measured ELISA Assay Ratio b1/b7 for this molecule: CC(C)C[C@@H]1NC(=O)[C@@H](CCCN(C)C)NC(=O)[C@@H]2CCCN2[C@H](C(=O)NC(C)(C)C)[C@H](C)NC(=O)[C@H]([C@@H](C)O)NC(=O)[C@H](CC(=O)O)NC1=O [Compound 83]
Output line: 6.9

Input line: Please look up its ELISA Assay Ratio b1/b7: CC(C)C[C@@H]1NC(=O)c2ccc(-c3ccccc3N3CCNCC3)c(c2)CNC(=O)[C@@H]2CCCN2[C@H](C(=O)NC(C)(C)C)[C@H](C)NC(=O)[C@H]([C@@H](C)O)NC(=O)[C@H](CC(=O)O)NC1=O [Compound 348]
Output line: 1.5

Input line: What value of ELISA Assay Ratio b1/b7 has been recorded for this entry: CC(C)C[C@@H]1NC(=O)c2ccc(N3CCOCC3)c(c2)CNC(=O)[C@@H]2CCCN2[C@H](C(=O)NC(C)(C)C)[C@H](C)NC(=O)[C@H]([C@@H](C)O)NC(=O)[C@H](CC(=O)O)NC1=O [Compound 379]
Output line: 4.9

Input line: Entry under review: C=CCOc1ccc(C[C@@H]2NC(=O)[C@@H]3CCCN3[C@H](C(=O)NC(C)(C)C)[C@H](C)NC(=O)[C@H]([C@@H](C)O)NC(=O)[C@H](CC(=O)O)NC(=O)[C@H](CC(C)C)NC(=O)CNC2=O)cc1 [Compound 163] . Reported ELISA Assay Ratio b1/b7?
Output line: 11.0

Input line: What value of ELISA Assay Ratio b1/b7 has been recorded for this entry: CC(C)C[C@@H]1NC(=O)[C@@H](CCCCN)NC(=O)[C@H](Cc2ccc(O)cc2)NC(=O)[C@@H]2CCCN2[C@H](C(=O)NC(C)(C)C)[C@H](C)NC(=O)[C@H]([C@@H](C)O)N(C)C(=O)[C@H](CC(=O)O)NC1=O [Compound 121]
Output line: 11.4

Input line: Item under review: CC(C)C[C@@H]1NC(=O)C[C@H](CCCCN)NC(=O)CN(Cc2ccccc2)C(=O)[C@@H]2CCCN2[C@H](C(=O)NC(C)(C)C)[C@H](C)NC(=O)[C@H]([C@@H](C)O)NC(=O)[C@H](CC(=O)O)NC1=O [Compound 296] . Reported ELISA Assay Ratio b1/b7?
Output line: 94.8

Input line: Fill in the blank: the reported ELISA Assay Ratio b1/b7 of CC(C)C[C@@H]1NC(=O)c2cccc(c2)CNC(=O)[C@@H]2CCCN2[C@H](C(=O)NC(C)(C)C)[C@H](C)NC(=O)[C@H]([C@@H](C)O)NC(=O)[C@H](CC(=O)O)NC1=O [Compound 358] is ____.
Output line: 8.7

Input line: Consider the molecule shown here: CC(C)C[C@@H]1NC(=O)CN(C)C(=O)[C@H](Cc2csc(-c3ccccn3)n2)NC(=O)[C@@H]2CCCN2[C@H](C(=O)NC(C)(C)C)[C@H](C)NC(=O)[C@H]([C@@H](C)O)NC(=O)[C@H](CC(=O)O)NC1=O [Compound 179] What is its recorded ELISA Assay Ratio b1/b7?
Output line: 15.2

Input line: Please look up its ELISA Assay Ratio b1/b7: COc1cccc(-c2ccccc2C[C@@H]2NC(=O)[C@@H]3CCCN3[C@H](C(=O)NC(C)(C)C)[C@H](C)NC(=O)[C@H]([C@@H](C)O)NC(=O)[C@H](CC(=O)O)NC(=O)[C@H](CC(C)C)NC(=O)[C@H]3CCCCN3C2=O)c1 [Compound 136]
Output line: 6.6
